// reported pIC50 for each item listed
- measurement_target: Matrilysin (Homo sapiens, UniProt P09237)
- Sequence (P09237 whole entry): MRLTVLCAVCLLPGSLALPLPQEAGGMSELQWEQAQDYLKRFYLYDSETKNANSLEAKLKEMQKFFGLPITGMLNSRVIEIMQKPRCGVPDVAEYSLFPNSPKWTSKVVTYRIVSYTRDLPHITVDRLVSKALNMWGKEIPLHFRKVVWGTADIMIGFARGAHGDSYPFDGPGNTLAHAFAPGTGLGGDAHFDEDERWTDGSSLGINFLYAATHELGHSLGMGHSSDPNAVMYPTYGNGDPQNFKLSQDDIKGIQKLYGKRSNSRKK
- method_description: Inhibition of human recombinant MMP7
pIC50: −log10 of the molar value. Where a SMILES comes first, the peptide text is derived from it. The star is where a group is joined. Cbz = O=C(OCc1ccccc1)*

Worked cases, answers included:
CNC(=O)[C@H](Cc1ccccc1)NC(=O)[C@H](CC(=O)NO)CC(C)C    5.39
CNC(=O)[C@H](Cc1ccccc1)NC(=O)[C@H](CC(C)C)NC(=O)NO    < 3.52
CNC(=O)[C@H](Cc1ccccc1)NC(=O)[C@H](N)CC(C)C    < 3.52
COC(=O)[C@H](Cc1ccccc1)NC(=O)[C@H](CC(C)C)NC(=O)OCc1ccccc1 (Cbz-Leu-Phe-OMe)    < 3.52

input: Look at this compound and give its reported pIC50. CNC(=O)[C@H](Cc1ccccc1)NC(=O)[C@@H](CC(=O)NO)CC(C)C
output: 8.08

input: Look at this compound and give its reported pIC50. CNC(=O)[C@H](Cc1ccccc1)NC(=O)[C@@H](N)CC(C)C
output: < 3.52

input: Look at this compound and give its reported pIC50. CNC(=O)[C@H](Cc1ccccc1)NC(=O)[C@@H](CC(C)C)NC(=O)NO
output: < 3.52
